QUANTITY MEASURED: melting point

Identify measured melting point associated with `CCOC(=O)c1ccc(OCc2csc3nc(C(=O)OCC)[nH]c(=O)c23)cc1` 205 to 208 °C

Identify measured melting point associated with `CCCOc1ccc(-c2ccc3c(c2)C=C(C(=O)Nc2ccc(CN(C)C4CCOCC4)cc2)CCN3C=O)cc1` 207 to 209 °C

Identify measured melting point associated with `CC(=O)Nc1ccc2c(c1)C(=O)C1(CC1)O2` 211 to 212 °C

Identify measured melting point associated with `O=C(CCC(=O)N1CCC(c2ccc(Cl)cc2)CC1)c1ccc2c(c1)CCN(CCn1cccc1)CC2` 96 to 97 °C

Identify measured melting point associated with `CC1(C)OC(=O)Nc2ccc(-c3ccccc3CC#N)cc21` 176 to 179 °C

Identify measured melting point associated with `Cn1cc(C2=C(c3c4n(c5ccccc35)CCN(C(=O)Oc3ccccc3)C4)C(=O)NC2=O)c2ccccc21` 160 to 165 °C

Identify measured melting point associated with CCOc1ccc2[nH]cc(CC(C)(N)C(=O)OC)c2c1 (racemic) 165 to 166 °C

Identify measured melting point associated with `O=C(C(=O)c1cccc(OCc2ccccc2)c1)c1cc[nH]c1` 124 to 125 °C

Identify measured melting point associated with `Nc1cc(=O)n(Cc2cccc(C(F)(F)F)c2)[nH]1` 130 °C

Identify measured melting point associated with `COc1cc2cc(CO)nc(-c3ccnc(NN)c3)c2cc1OC` 157 to 159 °C

Identify measured melting point associated with `NCCc1csc(N)n1` 69 to 71 °C

Identify measured melting point associated with `CCN(CC)c1ccc(NC(=O)c2cnn(-c3ccc(F)cc3)c2C)cc1C#N` 135 to 136 °C

Identify measured melting point associated with `NC=C(C=O)c1cccc(C(F)(F)F)c1` 63 to 70 °C

Identify measured melting point associated with CNC(=O)c1ccc(N2CCN(Cc3cc4c(c(OC)c3)OC(C)C(=O)N4)CC2)c(F)c1 (stereo not given) 241 to 244 °C

Identify measured melting point associated with `CCOC(=O)C(=O)Nc1cc(C)c(C)cc1C(N)=O` 190 to 193 °C

Identify measured melting point associated with `CSc1nc(Cc2ccccc2[N+](=O)[O-])n[nH]1` 120 to 132 °C

Identify measured melting point associated with `CCc1cc(N(C=O)c2ccccc2)cc(CC)c1N=C=S` 77 to 78 °C

Identify measured melting point associated with `FC(F)(F)c1ccc(CCc2cc(OCc3ccccc3)c(OCc3ccccc3)nn2)cc1Cl` 169 to 170 °C

Identify measured melting point associated with O=C(OCCCl)C(O)c1ccccc1 (stereo not given) 43 to 45 °C

Identify measured melting point associated with `C#Cc1cccc(Nc2ncnc3ccc(S(=O)(=O)n4ccc(C=CC(=O)Nc5ccccc5NC(=O)OC(C)(C)C)c4)cc23)c1` 146 to 150 °C
